Experiment: Pharmacokinetic study of OSIM in rats, alone or after voriconazole, itraconazole or fluconazole pretreatment (plasma concentration by HPLC-MS/MS)
Format: in vivo, Sprague-Dawley rats
Conditions: male, Sprague-Dawley, rat, plasma, po, 10 mg/kg, OSIM 10 mg/kg oral after fluconazole 20 mg/kg oral once daily for 5 days, rats, n = 6
measurement_type: AUC(0-inf) (ng·h/mL)
Provide the reading as a plain figure in ng·h/mL.

-- ask Need AUC(0-inf), item `C=CC(=O)Nc1cc(Nc2nccc(-c3cn(C)c4ccccc34)n2)c(OC)cc1N(C)CCN(C)C`
-- reply 524

====

Assay: Pharmacokinetic study of OSIM in rats, alone or after voriconazole, itraconazole or fluconazole pretreatment (plasma concentration by HPLC-MS/MS)
Format: in vivo, Sprague-Dawley rats
Conditions: male, Sprague-Dawley, rat, plasma, po, 10 mg/kg, OSIM 10 mg/kg oral after voriconazole 20 mg/kg oral once daily for 5 days, rats, n = 6
Procedure: A liquid chromatography with tandem mass spectrometry (HPLC-MS/MS) system coupled to a JasperTM HPLC and Triple […] and equipped with an electrospray ionization (ESI) interface source (AB Sciex, Redwood City, CA, USA) was used for the analysis. […] Waters Corp., Milford, MA, USA) maintained at 45 °C. Mobile phase A was 0.2% formic acid in water, and mobile phase B was acetonitrile. […]
measurement_type: AUC(0-t) (ng·h/mL)
Provide the reading as a plain figure in ng·h/mL.

-- ask Need AUC(0-t), item `C=CC(=O)Nc1cc(Nc2nccc(-c3cn(C)c4ccccc34)n2)c(OC)cc1N(C)CCN(C)C`
-- reply 422

====

Test: Pharmacokinetic study of OSIM in rats, alone or after voriconazole, itraconazole or fluconazole pretreatment (plasma concentration by HPLC-MS/MS)
Assay type: in vivo, Sprague-Dawley rats
Conditions: male, Sprague-Dawley, rat, plasma, po, 10 mg/kg, OSIM 10 mg/kg oral, control (0.3% CMC-Na), rats, n = 6, mean ± SD
measurement_type: Tmax (h)
Provide the reading as a plain figure in h.

-- ask Need Tmax, item C=CC(=O)Nc1cc(Nc2nccc(-c3cn(C)c4ccccc34)n2)c(OC)cc1N(C)CCN(C)C [OSIM, Osimertinib]
-- reply 2.33

====

Assay: Pharmacokinetic study of OSIM in rats, alone or after voriconazole, itraconazole or fluconazole pretreatment (plasma concentration by HPLC-MS/MS)
Assay type: in vivo, Sprague-Dawley rats
Details: male, Sprague-Dawley, rat, plasma, po, 10 mg/kg, OSIM 10 mg/kg oral after voriconazole 20 mg/kg oral once daily for 5 days, rats, n = 6; read-out: MRT0–inf
measurement_type: MRT inf

-- ask Need MRT inf, item C=CC(=O)Nc1cc(Nc2nccc(-c3cn(C)c4ccccc34)n2)c(OC)cc1N(C)CCN(C)C [OSIM, Osimertinib]
-- reply 6.83 h
